Each entry below carries its recorded IC50.
# MEASURED TARGET: Recombinant human Src (Homo sapiens, UniProt P12931)
# Construct: made in house; host or cells: baculovirus-insect cell system
# Sequence (P12931 whole entry): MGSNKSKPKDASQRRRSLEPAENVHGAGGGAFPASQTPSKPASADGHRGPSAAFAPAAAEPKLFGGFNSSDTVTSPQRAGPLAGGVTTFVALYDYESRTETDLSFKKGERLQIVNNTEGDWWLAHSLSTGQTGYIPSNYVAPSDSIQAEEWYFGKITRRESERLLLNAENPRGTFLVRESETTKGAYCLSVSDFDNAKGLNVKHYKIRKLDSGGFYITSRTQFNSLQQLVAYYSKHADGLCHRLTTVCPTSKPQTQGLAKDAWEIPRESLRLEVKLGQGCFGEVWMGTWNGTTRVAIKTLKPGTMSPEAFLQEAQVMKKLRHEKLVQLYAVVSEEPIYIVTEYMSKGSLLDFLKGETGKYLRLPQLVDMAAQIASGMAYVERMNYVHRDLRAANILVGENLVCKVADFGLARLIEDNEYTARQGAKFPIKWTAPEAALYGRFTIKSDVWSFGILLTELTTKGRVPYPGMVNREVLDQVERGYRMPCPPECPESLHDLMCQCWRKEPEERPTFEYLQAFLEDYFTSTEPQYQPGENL
# ASSAY METHOD TEXT: Src tyrosine kinase activity, poly E4Y and 32P-ATP
# Assay type: biochemical
# ASSAY CONTEXT: read-out: IC50 (preferred compounds for treatment of Src family-related disease)
MEASURED QUANTITY: IC50

COMPOUND: Cc1c(C(O)C2CCCCC2)sc2c(NN=Cc3ccc(C(=O)O)cc3)ncnc12 (stereo not shown) [Compound 470]
MEASURED QUANTITY: IC50
REPORTED RESULT: < 2000 nM
//
COMPOUND: Cc1c(C(O)c2cccs2)sc2c(NN=Cc3ccc(C(=O)O)cc3)ncnc12 (stereo not shown) [Compound 488]
MEASURED QUANTITY: IC50
REPORTED RESULT: < 2000 nM
//
COMPOUND: COc1ccc(C=NNc2ncnc3cc(I)sc23)cc1O [Compound 397]
MEASURED QUANTITY: IC50
REPORTED RESULT: < 2000 nM
//
COMPOUND: Cc1c(-c2ccccc2)sc2c(NN=Cc3cccs3)ncnc12 [Compound 361]
MEASURED QUANTITY: IC50
REPORTED RESULT: < 2000 nM
//
COMPOUND: Cc1c(-c2ccccc2Cl)sc2c(NN=Cc3cccnc3)ncnc12 [Compound 389]
MEASURED QUANTITY: IC50
REPORTED RESULT: < 2000 nM
//
COMPOUND: Cc1c(-c2ccc(C(=O)O)cc2)sc2c(NN=Cc3cccs3)ncnc12 [Compound 455]
MEASURED QUANTITY: IC50
REPORTED RESULT: < 2000 nM
//
COMPOUND: COc1ccc(C=NNc2ncnc3c(C)c(-c4cccc(CO)c4)sc23)cc1O [Compound 443]
MEASURED QUANTITY: IC50
REPORTED RESULT: < 2000 nM
//
COMPOUND: COc1cccc(C=NNc2ncnc3c(C)csc23)c1 [Compound 137]
MEASURED QUANTITY: IC50
REPORTED RESULT: < 2000 nM
//
COMPOUND: Cc1c(C(O)c2cccnc2)sc2c(NN=Cc3cccs3)ncnc12 (stereo not shown) [Compound 485]
MEASURED QUANTITY: IC50
REPORTED RESULT: < 2000 nM
//
COMPOUND: Cc1c(-c2ccc(CO)cc2)sc2c(NN=Cc3cccnc3)ncnc12 [Compound 436]
MEASURED QUANTITY: IC50
REPORTED RESULT: < 2000 nM
//
COMPOUND: COc1ccc(C=NNc2ncnc3c(C)c(-c4ccccc4OC)sc23)cc1O [Compound 435]
MEASURED QUANTITY: IC50
REPORTED RESULT: < 2000 nM
//
COMPOUND: Cc1csc2c(NN=Cc3c[nH]cn3)ncnc12 [Compound 42]
MEASURED QUANTITY: IC50
REPORTED RESULT: < 2000 nM
//
COMPOUND: Cc1c(-c2ccc(CO)cc2)sc2c(NN=Cc3ccc(C(=O)O)cc3)ncnc12 [Compound 437]
MEASURED QUANTITY: IC50
REPORTED RESULT: < 2000 nM
//
COMPOUND: O=C(O)c1ccc(C=NNc2ncnc3cc(-c4ccc(F)cc4)sc23)cc1 [Compound 280]
MEASURED QUANTITY: IC50
REPORTED RESULT: < 2000 nM
//
COMPOUND: Cc1c(I)sc2c(NN=Cc3cccnc3)ncnc12 [Compound 372]
MEASURED QUANTITY: IC50
REPORTED RESULT: < 2000 nM
//
COMPOUND: CCOc1cccc(C=NNc2ncnc3c(C)csc23)c1 [Compound 138]
MEASURED QUANTITY: IC50
REPORTED RESULT: < 2000 nM
//
COMPOUND: Cc1c(I)sc2c(NN=Cc3ccc(C(=O)O)cc3)ncnc12 [Compound 373]
MEASURED QUANTITY: IC50
REPORTED RESULT: < 2000 nM
//
COMPOUND: Cc1csc2c(NN=Cc3cccnc3)ncnc12 [Compound 27]
MEASURED QUANTITY: IC50
REPORTED RESULT: < 2000 nM
//
COMPOUND: COc1ccc(C=NNc2ncnc3c(C)c(C(O)c4cccnc4)sc23)cc1O (stereo not shown) [Compound 486]
MEASURED QUANTITY: IC50
REPORTED RESULT: < 2000 nM

* * *

# MEASURED TARGET: Csk (Homo sapiens)
# Construct: GST (glutathione-S-transferase) (N); made in house; host or cells: E. coli (pGEX vector)
# Sequence (P41240 whole entry, species assumed): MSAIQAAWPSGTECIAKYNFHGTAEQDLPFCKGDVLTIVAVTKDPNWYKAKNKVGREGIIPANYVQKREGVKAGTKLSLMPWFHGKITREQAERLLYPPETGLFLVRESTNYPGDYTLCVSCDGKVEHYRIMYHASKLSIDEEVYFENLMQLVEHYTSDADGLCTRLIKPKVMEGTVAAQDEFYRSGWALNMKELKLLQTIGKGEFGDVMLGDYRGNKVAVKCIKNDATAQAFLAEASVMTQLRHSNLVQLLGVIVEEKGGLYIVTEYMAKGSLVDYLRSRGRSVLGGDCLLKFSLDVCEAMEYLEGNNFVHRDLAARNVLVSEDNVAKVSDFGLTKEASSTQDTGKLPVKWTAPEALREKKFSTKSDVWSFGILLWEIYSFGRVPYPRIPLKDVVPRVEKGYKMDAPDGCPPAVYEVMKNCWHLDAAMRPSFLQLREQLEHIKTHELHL
# ASSAY METHOD TEXT: Csk tyrosine kinase activity, poly E4Y and 32P-ATP
# Type: biochemical
# ASSAY CONTEXT: screening assay, 50 μg/ml poly E4Y, 0.2 mM 32P-ATP
MEASURED QUANTITY: IC50

COMPOUND: CCCOc1cccc(C=NNc2ncnc3c(C)csc23)c1 [Compound 135]
MEASURED QUANTITY: IC50
REPORTED RESULT: > 153 µM

COMPOUND: Cc1csc2c(NN=Cc3ccc(C(=O)O)cc3)ncnc12 [Compound 28]
MEASURED QUANTITY: IC50
REPORTED RESULT: > 160 µM

COMPOUND: COc1ccc(C=NNc2ncnc3c(C)c(-c4ccccc4)sc23)cc1O [Compound 362]
MEASURED QUANTITY: IC50
REPORTED RESULT: > 128 µM

COMPOUND: Cc1c(I)sc2c(NN=Cc3cccs3)ncnc12 [Compound 374]
MEASURED QUANTITY: IC50
REPORTED RESULT: > 125 µM

COMPOUND: C(=NNc1ncnc2c(-c3ccsc3)csc12)c1cccnc1 [Compound 209]
MEASURED QUANTITY: IC50
REPORTED RESULT: > 148 µM

COMPOUND: Cc1csc2c(NN=Cc3ccoc3)ncnc12 [Compound 38]
MEASURED QUANTITY: IC50
REPORTED RESULT: > 194 µM

COMPOUND: Cc1csc2c(NN=Cc3ncc[nH]3)ncnc12 [Compound 34]
MEASURED QUANTITY: IC50
REPORTED RESULT: > 194 µM

COMPOUND: Cc1c(-c2ccsc2)sc2c(NN=Cc3cccs3)ncnc12 [Compound 381]
MEASURED QUANTITY: IC50
REPORTED RESULT: > 140 µM

COMPOUND: CC=NNc1ncnc2c(C)csc12 [Compound 153]
MEASURED QUANTITY: IC50
REPORTED RESULT: > 242 µM

COMPOUND: C(=NNc1ncnc2cc(-c3ccccc3)sc12)c1cccs1 [Compound 253]
MEASURED QUANTITY: IC50
REPORTED RESULT: > 149 µM

COMPOUND: Brc1csc2c(NN=Cc3cccnc3)ncnc12 [Compound 180]
MEASURED QUANTITY: IC50
REPORTED RESULT: > 150 µM

COMPOUND: COc1ccc(-c2sc3c(NN=Cc4cccs4)ncnc3c2C)cc1 [Compound 424]
MEASURED QUANTITY: IC50
REPORTED RESULT: > 131 µM

COMPOUND: Clc1cccc(-c2cc3ncnc(NN=Cc4cccnc4)c3s2)c1 [Compound 304]
MEASURED QUANTITY: IC50
REPORTED RESULT: > 137 µM

COMPOUND: COc1cccc(-c2sc3c(NN=Cc4ccc(OC)c(O)c4)ncnc3c2C)c1 [Compound 429]
MEASURED QUANTITY: IC50
REPORTED RESULT: > 119 µM

COMPOUND: CS(=O)(=O)c1ccc(-c2cc3ncnc(NN=Cc4cccnc4)c3s2)cc1 [Compound 290]
MEASURED QUANTITY: IC50
REPORTED RESULT: > 122 µM

COMPOUND: COc1ccc(C=NNc2ncnc3c(C)c(I)sc23)cc1O [Compound 375]
MEASURED QUANTITY: IC50
REPORTED RESULT: > 114 µM

COMPOUND: Brc1cc2ncnc(NN=Cc3cccnc3)c2s1 [Compound 221]
MEASURED QUANTITY: IC50
REPORTED RESULT: > 150 µM

COMPOUND: Cc1csc2c(NN=Cc3ccc(O)cc3)ncnc12 [Compound 10]
MEASURED QUANTITY: IC50
REPORTED RESULT: > 176 µM

COMPOUND: Cc1csc2c(NN=Cc3nccn3C)ncnc12 [Compound 101]
MEASURED QUANTITY: IC50
REPORTED RESULT: > 184 µM

COMPOUND: CCOc1cc(C=NNc2ncnc3c(C)csc23)ccc1O [Compound 50]
MEASURED QUANTITY: IC50
REPORTED RESULT: > 152 µM

COMPOUND: Cc1csc2c(NN=Cc3cccc(F)c3)ncnc12 [Compound 52]
MEASURED QUANTITY: IC50
REPORTED RESULT: > 175 µM

COMPOUND: COc1ccccc1-c1sc2c(NN=Cc3cccnc3)ncnc2c1C [Compound 432]
MEASURED QUANTITY: IC50
REPORTED RESULT: > 133 µM

COMPOUND: CSc1ccc(C=NNc2ncnc3c(C)csc23)cc1 [Compound 172]
MEASURED QUANTITY: IC50
REPORTED RESULT: > 159 µM

COMPOUND: Cc1c(-c2ccsc2)sc2c(NN=Cc3cccnc3)ncnc12 [Compound 379]
MEASURED QUANTITY: IC50
REPORTED RESULT: > 142 µM

COMPOUND: C(=NNc1ncnc2cc(-c3ccccc3)sc12)c1ccncc1 [Compound 252]
MEASURED QUANTITY: IC50
REPORTED RESULT: > 151 µM

COMPOUND: Cc1csc2c(NN=Cc3cccc([N+](=O)[O-])c3)ncnc12 [Compound 144]
MEASURED QUANTITY: IC50
REPORTED RESULT: > 160 µM

COMPOUND: COc1ccc(C=NNc2ncnc3c2sc2ncccc23)cc1O [Compound 247]
MEASURED QUANTITY: IC50
REPORTED RESULT: > 142 µM

COMPOUND: Cc1sc2c(NN=Cc3ccc(F)cc3)ncnc2c1C [Compound 93]
MEASURED QUANTITY: IC50
REPORTED RESULT: > 166 µM

COMPOUND: CC=CC=NNc1ncnc2c(C)csc12 [Compound 182]
MEASURED QUANTITY: IC50
REPORTED RESULT: > 215 µM

COMPOUND: CCCCC=NNc1ncnc2c(C)csc12 [Compound 175]
MEASURED QUANTITY: IC50
REPORTED RESULT: > 201 µM

COMPOUND: COc1ccc(C=NNc2ncnc3c(C)csc23)cc1OC [Compound 17]
MEASURED QUANTITY: IC50
REPORTED RESULT: > 152 µM

COMPOUND: COc1cccc(C=NNc2ncnc3c(C)csc23)c1 [Compound 137]
MEASURED QUANTITY: IC50
REPORTED RESULT: > 168 µM

COMPOUND: Cc1csc2c(NN=Cc3cccc(Cl)c3)ncnc12 [Compound 19]
MEASURED QUANTITY: IC50
REPORTED RESULT: > 165 µM

COMPOUND: N#Cc1ccc(C=NNc2ncnc3c2sc2ncccc23)cc1 [Compound 248]
MEASURED QUANTITY: IC50
REPORTED RESULT: > 151 µM

COMPOUND: Ic1cc2ncnc(NN=Cc3cccnc3)c2s1 [Compound 394]
MEASURED QUANTITY: IC50
REPORTED RESULT: > 131 µM

COMPOUND: Cc1csc2c(NN=CC3CCCCC3)ncnc12 [Compound 25]
MEASURED QUANTITY: IC50
REPORTED RESULT: > 182 µM

COMPOUND: Cc1csc2c(NN=Cc3ccccc3Cl)ncnc12 [Compound 45]
MEASURED QUANTITY: IC50
REPORTED RESULT: > 165 µM

COMPOUND: C(=NNc1ncnc2c1sc1ncccc12)c1cccs1 [Compound 244]
MEASURED QUANTITY: IC50
REPORTED RESULT: > 161 µM

COMPOUND: COc1cccc(-c2sc3c(NN=Cc4cccs4)ncnc3c2C)c1 [Compound 428]
MEASURED QUANTITY: IC50
REPORTED RESULT: > 131 µM

COMPOUND: Cc1csc2c(NN=Cc3ccccc3O)ncnc12 [Compound 44]
MEASURED QUANTITY: IC50
REPORTED RESULT: > 176 µM

COMPOUND: CCCc1csc2c(NN=Cc3cccnc3)ncnc12 [Compound 264]
MEASURED QUANTITY: IC50
REPORTED RESULT: > 168 µM
